assay: physchem; conditions: water
Structures can show the parent of a compound that is named as a salt.
RESULT_TYPE: solubility

[[record]]
molecule = "CCN(CC)C(=O)C1(c2ccccc2)CC1CN (stereo not shown) [milnacipran hydrochloride]"
result_type = "solubility"
measured_result = "600 mg/mL"


Source of measurements: patent US6709675B1
